Reference for the values: ChEMBL document CHEMBL1127289

- System: Mus musculus
- EXPERIMENT_NOTES: Tested for the intraperitoneal optimal dose of 0.1 mL in tumor cells
- Assay type: functional
REPORTED_PROPERTY: OD (mg/kg)
Give your result in mg/kg as a bare value.

> print(dat)
                        structure.as.smiles  reported.property  measured.value
1  CN1CCN(c2ccc3[nH]c(-c4ccc5[nH]c(CCCc6ccc(N(CCCl)CCCl)cc6)nc5c4)nc3c2)CC1                 OD             5.9
2  CN1CCN(c2ccc3[nH]c(-c4ccc5[nH]c(-c6ccc(O)cc6)nc5c4)nc3c2)CC1                 OD              20
3  CN1CCN(c2ccc3[nH]c(-c4ccc5[nH]c(-c6ccc(N(C)CCCl)cc6)nc5c4)nc3c2)CC1                 OD              30
4  CN1CCN(c2ccc3[nH]c(-c4ccc5[nH]c(Cc6ccc(N(CCCl)CCCl)cc6)nc5c4)nc3c2)CC1                 OD            13.3

Input: Request the reported OD associated with `CCN(CC)c1ccc(-c2nc3cc(-c4nc5cc(N6CCN(C)CC6)ccc5[nH]4)ccc3[nH]2)cc1`
Output: 20

Input: Also need `CN1CCN(c2ccc3[nH]c(-c4ccc5[nH]c(CCc6ccc(N(CCCl)CCCl)cc6)nc5c4)nc3c2)CC1` , thanks.
Output: 3.9

Input: Note, next up: `CN1CCN(c2ccc3[nH]c(-c4ccc5[nH]c(CCCCCCc6ccc(N(CCCl)CCCl)cc6)nc5c4)nc3c2)CC1`
Output: 8.9

Input: Can you check `CN1CCN(c2ccc3[nH]c(-c4ccc5[nH]c(-c6ccc(N(CCCl)CCCl)cc6)nc5c4)nc3c2)CC1` next?
Output: 30

----------
- Organism: Mus musculus
- EXPERIMENT_NOTES: Tested for percentage increase in lifespan of drug-treated tumor-bearing animals when treated at optimal dose
- Type: functional
Returns: string. Value is met if measured ILS is below 70%, and not met if it is greater than or equal to it.

Consider the following illustrative entries.
> print(dat)
                        structure.as.smiles  class.label
1  CN1CCN(c2ccc3[nH]c(-c4ccc5[nH]c(-c6ccc(N(CCCl)CCCl)cc6)nc5c4)nc3c2)CC1      not met
2  CN1CCN(c2ccc3[nH]c(-c4ccc5[nH]c(CCc6ccc(N(CCCl)CCCl)cc6)nc5c4)nc3c2)CC1          met
3  CN1CCN(c2ccc3[nH]c(-c4ccc5[nH]c(-c6ccc(N(C)CCCl)cc6)nc5c4)nc3c2)CC1      not met
4  CN1CCN(c2ccc3[nH]c(-c4ccc5[nH]c(CCCCCCc6ccc(N(CCCl)CCCl)cc6)nc5c4)nc3c2)CC1          met

Now turn to the next compound.
Input: Consider `CCN(CC)c1ccc(-c2nc3cc(-c4nc5cc(N6CCN(C)CC6)ccc5[nH]4)ccc3[nH]2)cc1` . Does its ILS lie strictly below 70%?
Output: met

----------
- Test system: P388
- EXPERIMENT_NOTES: Concentration of the drug to inhibit wild type P388 murine leukemia cell growth in culture
- Assay type: functional, cell-based
- MEASUREMENT_PARAMETERS: Mus musculus
pIC50: −log10 of the molar value.
I would appreciate it if you labelled entries Fulfilled when pIC50 is 6 or higher, otherwise Not fulfilled.

> print(dat)
                        structure.as.smiles  system    class.label
1  CN1CCN(c2ccc3[nH]c(-c4ccc5[nH]c(CCCc6ccc(N(CCCl)CCCl)cc6)nc5c4)nc3c2)CC1    P388      Fulfilled
2  CCN(CCCl)c1cc(CN(C)C)cc(NC(=O)c2ccc(C(=O)Nc3cc(CN(C)C)cc(N(CC)CCCl)c3)cc2)c1    P388  Not fulfilled
3  CN1CCN(c2ccc3[nH]c(-c4ccc5[nH]c(-c6ccc(N(C)CCCl)cc6)nc5c4)nc3c2)CC1    P388      Fulfilled
4  CN1CCN(c2ccc3[nH]c(-c4ccc5[nH]c(CCCCCCc6ccc(N(CCCl)CCCl)cc6)nc5c4)nc3c2)CC1    P388      Fulfilled

Field: next molecule
Input: Hello, I need to know if `CN1CCN(c2ccc3[nH]c(-c4ccc5[nH]c(CCc6ccc(N(CCCl)CCCl)cc6)nc5c4)nc3c2)CC1` has measured pIC50 not below 6. Thanks!
Output: Fulfilled
